Hey, just so you know, these numbers are from the supplement of paper PMC11208160.

protocol-summary: recombinant barcode read abundance after kanamycin selection (control-corrected) (log10(CPM+1)); higher = more efficient recombination; sequences stand for … in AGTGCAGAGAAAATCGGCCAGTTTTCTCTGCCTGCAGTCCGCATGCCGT…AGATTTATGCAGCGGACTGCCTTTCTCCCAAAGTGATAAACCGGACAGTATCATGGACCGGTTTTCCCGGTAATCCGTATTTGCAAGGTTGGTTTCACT; site = the 11-nt target;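 further: IS621 recombinase and bridge RNA in Escherichia coli cells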
Label rule, in plain words: recombinant barcode read abundance (log10) of 0.1 and up is yes, under 0.1 is no.

[
  {
    "sequence-string": "ATGCGAGCTTGGGTTCTAACCTGTTGCGG (site ATGCGAGCTCA)",
    "group": "yes"
  },
  {
    "sequence-string": "GTTACCGCTTGGGTTCTAACCTGTTGCCT (site GTCACCGCTAG)",
    "group": "yes"
  },
  {
    "sequence-string": "GAGTTTGCTTGGGTTCTAACCTGTTGCCT (site GGGTTTGCTAG)",
    "group": "yes"
  },
  {
    "sequence-string": "CGCGGTCCTTGGGTTCTAACCTGTTGCCT (site CGCGTTCCTAG)",
    "group": "no"
  },
  {
    "sequence-string": "TCCAGTACTTGGGTTCTAACCTGTTGCAT (site TCCCGTACTAT)",
    "group": "no"
  },
  {
    "sequence-string": "ACTAAGACTTGGGTTCTAACCTGTTGCTG (site ACTAAGACTCA)",
    "group": "yes"
  },
  {
    "sequence-string": "GTCGCGCCTTGGGTTCTAACCTGTTGCCT (site GTCGCGGCTAG)",
    "group": "yes"
  },
  {
    "sequence-string": "GATATAGCTTGGGTTCTAACCTGTTGCGG (site GTGATAGCTCC)",
    "group": "no"
  }
]
